The measurements presented in this section are drawn from PubChem BioAssay (NCI).

- Tested on: CCRF-CEM leukemia
- procedure text: NCI tumour cell line growth inhibition, 48 h
Where a SMILES comes first, the peptide text is derived from it.
Each entry below carries its reported TGI.
quantity: TGI

{"columns": ["compound", "observed value"],
 "data": [
  ["Cc1cccc(C)c1NC(=O)C(=O)C(C#N)c1ccccc1 (stereo not drawn)", "> 100 µM"],
  ["CCCCCCCCCCCC(=O)NCc1ccc(OC(=O)CCCCCCCCCCC)c(OC)c1", "11.6 µM"],
  ["COc1cccc2c1O/C(=C\\c1ncc([N+](=O)[O-])n1C)C2=O", "0.384 µM"],
  ["Fc1cccc(C2SCC3=Nc4ccccc4CN32)c1 (stereo not drawn)", "> 100 µM"],
  ["CCC(C)C(NC(=O)C(NC(=O)C(CC(N)=O)NC(=O)CN)C(C)O)C(=O)NC(C(=O)NC(C)C(=O)NC(C(=O)NC(CCC(=O)O)C(=O)NC(CC(C)C)C(=O)NC(CC(=O)O)C(=O)NC(C(=O)NC(Cc1ccc(O)cc1)C(=O)N1CCCC1C(=O)O)C(C)O)C(C)C)C(C)C (stereo not drawn) (H-GNTIVAVELDTYP-OH; configuration not given here)", "> 50 µM"],
  ["NNC(=O)c1ccccc1Nc1nc(-c2cccs2)nc2ccc(Br)cc12", "> 100 µM"],
  ["CC1(C)Oc2ccccc2OC1O (stereo not drawn)", "> 100 µM"],
  ["COC[C@@H]1[C@H]2OC(C)(C)O[C@H]2C(=O)N1C(=O)c1ccc(OC)cc1", "> 100 µM"],
  ["Cc1csc2nc(-c3ccncc3)cn12", "> 61 µM"],
  ["O=C(O)c1ccc(NCc2nc3cc(Cl)c(Cl)cc3[nH]2)cc1", "> 100 µM"],
  ["CC(C)NC(C)C(C)c1ccccc1 (stereo not drawn)", "> 100 µM"],
  ["COC(=O)/C=C\\[C@H]1[C@H](C)N1S(=O)(=O)c1ccc(C)cc1 (stereo partly drawn)", "> 100 µM"],
  ["C=C1C(O)C2C(=C(CCC3CC3)C13CC3)C(=O)C(C)(C)C2O (stereo not drawn)", "> 100 µM"],
  ["Nc1c(C(=O)Nc2cccc(C(F)(F)F)c2)sc2nc3c(cc12)C(O)CCC3 (stereo not drawn)", "> 100 µM"],
  ["O=C1/C=C/[C@@H](O)[C@@H]2C[C@@H](O)C[C@H]2/C=C/CCC[C@H](CCc2ccccc2)O1", "> 59.4 µM"],
  ["OCCN(CCO)c1ccc2c(-c3ccccc3)cc(N(CCO)CCO)nc2n1", "> 100 µM"],
  ["COc1ccc(C(=O)c2sc3nc4c(cc3c2N)CCCC4)cc1OC", "12.3 µM"],
  ["O=C(Nc1nnc(-c2ccc(Cl)cc2)o1)C(SC(=S)N1CCCCC1)c1ccccc1 (stereo not drawn)", "> 43.5 µM"],
  ["CCC1=C(C(C)=O)[C@@H]2CCCCC(C(=O)OC)[C@@H]2C1=O (stereo partly drawn)", "> 100 µM"],
  ["CCCN1C/C(=C\\c2ccc(O)c(OC)c2)C(=O)/C(=C/c2ccc(O)c(OC)c2)C1", "> 100 µM"],
  ["ONCCCn1cnc2c(NC3CC3)ncnc21", "> 100 µM"],
  ["Nn1c(SCC(=O)O)nc2ccccc2c1=O", "> 100 µM"],
  ["CCOP(=O)(O)CC1OC(CO)C(O)C1O (stereo not drawn)", "> 100 µM"],
  ["CCOC(OC1=C(C#N)CCC1)C(C)[Se]c1ccccc1 (stereo not drawn)", "> 100 µM"],
  ["Cc1cccc2c(NCCCN(C)C)c3c([N+](=O)[O-])ccc(C)c3nc12", "> 100 µM"],
  ["CCCCCCCCCCCCCC(=O)NCO", "> 100 µM"],
  ["N/C(=N\\N=C/c1c2ccccc2c(Cl)c2ccccc12)NO", "13.7 µM"],
  ["CCC(N)(C(=O)O)C(C)C (stereo not drawn)", "> 100 µM"],
  ["COc1ccc(-c2cc(=O)c3c(O)cc(O)cc3o2)cc1OC", "> 100 µM"],
  ["CSc1cc(-c2cc3ccccc3o2)oc(=O)c1C#N", "> 100 µM"],
  ["Cc1ccc(O)c(C2=CC3=NNC(=O)C3C(c3cccc(Br)c3)C2)c1 (stereo not drawn)", "> 75 µM"],
  ["Cc1cccc2nc3cccc(C(=O)NCCC[N+](C)(CCCNC(=O)c4cccc5nc6cccc(C)c6nc45)Cc4ccc([N+](=O)[O-])n4C)c3nc12", "> 26.9 µM"],
  ["CCCCNC(=O)c1cc(S(=O)(=O)n2cc[nH]c2=O)c(SC)cc1Cl", "> 100 µM"],
  ["Cn1nc(-c2cccc(-c3nn(C)c(=NCCO)s3)n2)sc1=NCCO", "> 100 µM"],
  ["CC1=C(C(=O)CC(=O)C(=O)Nc2ccc(Cl)cc2C)Sc2ccccc2N1", "> 100 µM"],
  ["O=C(CN1CCN(c2cccc(Cl)c2)CC1)N1CCc2c([nH]c3ccccc23)C1c1cccnc1 (stereo not drawn)", "17.8 µM"],
  ["COc1cc2c(cc1OCCCN1CCN(C)CC1)N=C[C@@H]1CCCN1C2=O", "10.6 µM"],
  ["Clc1ccccc1/C=C/c1ccnc2ccccc12", "50.3 µM"],
  ["Cc1ccc(NC(=O)CC(=O)N2N=C(N(C)c3ccccc3)CC2c2ccccc2)cc1 (stereo not drawn)", "> 100 µM"],
  ["C=CCc1cccc2cc(C(=O)NC3CCCCC3)c(=N)oc12", "> 100 µM"],
  ["C=C(CCOC)CCC1CCCCC/C1=N\\N(C)C (stereo not drawn)", "> 100 µM"],
  ["COc1ccc(/C=C/C2C(C#N)=C(N)OC3=C2C(=O)CCC3)cc1 (stereo not drawn)", "16.6 µM"],
  ["CCOC(CNc1nn2c(C)nnc2s1)OCC", "> 100 µM"]
]}

----------
Each entry below carries its reported log10(TGI).
- Test system: OVCAR-5 ovarian
- procedure text: NCI tumour cell line growth inhibition, 48 h
quantity: log10(TGI) (log10 of the value in µM)

{"columns": ["molecule", "target", "observed value"],
 "data": [
  ["O=C(Nc1nnc(-c2ccc(Cl)cc2)o1)C(SC(=S)N1CCCCC1)c1ccccc1 (centres undefined)", "OVCAR-5 ovarian", 1.81],
  ["CN(C)c1ccc(/C=C2\\C[C@H]3[C@@H]4CC=C5C[C@@H](O)CC[C@]5(C)[C@H]4CC[C@]3(C)C2=O)cc1", "OVCAR-5 ovarian", 1.67],
  ["Cc1cccc2c(NCCCN(C)C)c3c([N+](=O)[O-])ccc(C)c3nc12", "OVCAR-5 ovarian", -0.13],
  ["COc1ccc(-c2ccc(-c3ccc(C(=N)N)c(F)c3)s2)cc1", "OVCAR-5 ovarian", 0.05],
  ["Clc1ccc(Cn2c(CN3CCCC3)nc3ccccc32)cc1", "OVCAR-5 ovarian", 1.94],
  ["C[CH2][Pb]([CH2]C)([CH2]C)[O]C(=O)COC", "OVCAR-5 ovarian", 0.58],
  ["CNCCCNc1nc2ccccc2c2c(=O)c3cc(F)ccc3sc12", "OVCAR-5 ovarian", 0.48],
  ["CCN(CC)CC(O)CNc1c2ccc(Cl)cc2nc2ccc(OC)cc12 (centres undefined)", "OVCAR-5 ovarian", 0.71]
]}

----------
- System: HOP-92 NSCLC
- procedure text: NCI tumour cell line growth inhibition, 48 h
Each entry below carries its reported TGI.

{"columns": ["molecule", "limit operator", "TGI (µM)"],
 "data": [
  ["Cc1c(C(=O)O)n2c(C)nnc2c2ccccc12", ">", 100],
  ["C=C=C(Sc1ccccc1)C(C)(C)O", ">", 100],
  ["C=C(C(=O)OC)N1C(=O)CC(C)C1=O (configuration not stated)", "=", 3.98],
  ["O=C1OCCC1(Cc1ccc(Cl)cc1)Cc1ccc(Cl)cc1", "=", 96.3],
  ["CCC12C=CCN3CCC4(c5cc(C6(C(=O)OC)CCCCCc7c6[nH]c6ccccc76)c(OC)cc5N(C)C4C(O)(C(=O)OC)C1OC(C)=O)C32 (configuration not stated)", "=", 4.76],
  ["CCOC(CNc1nn2c(C)nnc2s1)OCC", ">", 100],
  ["CN1CCCC2[C@@H]3CCC4=C(O)C(=O)CC[C@]4(C)C3CC[C@@]21C (some centres not stated)", ">", 100],
  ["O=S1OC[C@H](CCCl)O1 (some centres not stated)", ">", 100],
  ["COc1ccc2c(c1OC)-c1c(c3ccc([N+](=O)[O-])cc3c(=O)n1CCCN)C2=O", "=", 27.1],
  ["C=C1CC2(CCOc3ccc(Cl)cc32)OC1=O (configuration not stated)", "=", 12.4],
  ["c1ccc(CC(Cc2ccccc2)C2=NCCCN2)cc1", "=", 64.6],
  ["CN(C)CC1CC/C(=C\\c2ccc(Cl)cc2)C1=O (configuration not stated)", "=", 22.5]
]}
